FYI, the data here is from ChEMBL document CHEMBL1759832.

# experiment-description: Aqueous solubility of compound in distilled water
# Format: physicochemical
Recorded solubility, one value per entry.

Cn1nnc(-c2ccc(-c3ccc(N4C[C@H](COC(=O)[C@@H]5CCCN5)OC4=O)cc3F)cn2)n1.O=C(O)C(F)(F)F	< 1.6 mg/mL
C[C@H](N)C(=O)OC[C@H]1CN(c2ccc(-c3ccc(-c4nnn(C)n4)nc3)c(F)c2)C(=O)O1.Cl	> 50 mg/mL

Form field: reported solubility of C[C@H](N)C(=O)OC[C@H]1CN(c2ccc(-c3ccc(-c4nnn(C)n4)nc3)c(F)c2)C(=O)O1.O=C(O)C(F)(F)F
> 50 mg/mL

====

# Tested on: Staphylococcus aureus
# experiment-description: Antibacterial activity against methicillin-resistant Staphylococcus aureus by agar dilution method
# Type: functional
quantity-kind: log10 of MIC (log10 of the value in µg/mL)
In our notation, the value equals log10 of MIC in µg/mL.

Worked examples follow.
CN(C)CC1CN(c2ccc(-c3ccc(-c4nnn(C)n4)nc3)c(F)c2)C(=O)O1 (single isomer, unassigned)	0.90
Cc1nnc(-c2ccc(-c3ccc(N4C[C@H](CO)OC4=O)cc3F)cn2)o1	-0.30
Cc1nnc(-c2ccc(-c3ccc(N4C[C@H](Cn5ccnn5)OC4=O)cc3F)cn2)o1	-0.60
Cn1nnc(-c2ccc(-c3ccc(N4C[C@H](Cn5ccnn5)OC4=O)cc3F)cn2)n1	-0.60
Cn1nnc(-c2ccc(-c3ccc(N4C[C@H](CNC(=O)CO)OC4=O)cc3F)cn2)n1	0.00
Cn1nnc(-c2ccc(-c3ccc(N4C[C@H](CF)OC4=O)cc3F)cn2)n1	0.00

Form field: reported log10 of MIC of Cn1nnc(-c2ccc(-c3ccc(N4C[C@H](Cn5cncn5)OC4=O)cc3F)cn2)n1
0.30

Form field: reported log10 of MIC of Cn1nnc(-c2ccc(-c3ccc(N4C[C@H](CNC(=O)c5cccs5)OC4=O)cc3F)cn2)n1
-0.30

Form field: reported log10 of MIC of Cn1nnc(-c2ccc(-c3ccc(N4C[C@H](Cn5nccn5)OC4=O)cc3F)cn2)n1
1.20

Form field: reported log10 of MIC of Cn1nnc(-c2ccc(-c3ccc(N4C[C@H](CO)OC4=O)cc3F)cn2)n1 [TEDIZOLID]
-0.30

Form field: reported log10 of MIC of Cc1nnc(-c2ccc(-c3ccc(N4C[C@H](COc5ccon5)OC4=O)cc3F)cn2)o1
0.00

Form field: reported log10 of MIC of COCC(=O)NC[C@H]1CN(c2ccc(-c3ccc(-c4nnn(C)n4)nc3)c(F)c2)C(=O)O1
0.00

Form field: reported log10 of MIC of COC[C@H]1CN(c2ccc(-c3ccc(-c4nnn(C)n4)nc3)c(F)c2)C(=O)O1
0.30
